Test Description: Pharmacokinetics and tissue distribution after single intravenous administration
Format: in vivo, mouse
Test Context: ICR, mouse, iv; mice, single i.v. 10 mg/kg; Brain
Procedure: Pharmacokinetic studies were performed as previously described.^[ [63] ^] Briefly, ICR mice were fasted without water for 16 h before drug administration and allowed access to food and water freely after administration. […]
Quantity Name: AUC(0-inf) (ng·h/mL)
Give bare numbers, in ng·h/mL.

Challenge: Recorded AUC(0-inf) of O=C(CCc1ccc(C(F)(F)F)cc1)O[C@@H]1C(=O)NCCc2c([nH]c3ccccc23)[C@H]1c1ccc(C(F)(F)F)cc1 [(+)3C-20] , please.
Response given: 3160
